All values here come from the RNAGym collection of RNA variant scans (doi:10.1038/nmeth.2970).

B1: GFP aptamer (parent)
chain: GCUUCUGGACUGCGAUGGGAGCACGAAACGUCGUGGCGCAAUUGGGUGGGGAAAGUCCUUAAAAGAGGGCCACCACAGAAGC

Variants of: B1
Experiment: HiTS-RAP
Details: with EGFP
// boundary case: Kd equal to 6 nM maps to no (0); strictly smaller maps to yes (1)

mutant-designation | assigned-label
A28U | yes (1)
C24U A28G | yes (1)
U59C A77G | yes (1)
G25A C74U | yes (1)
U31C G44A | yes (1)

Prompt: Could you please tell me whether Kd recorded for C10U A27G is less than 6 nM?
Completion: yes (1)

Prompt: Consider `C57U` . Does its Kd lie strictly below 6 nM?
Completion: no (0)

Prompt: Could you please tell me whether Kd recorded for `G18U` is less than 6 nM?
Completion: no (0)

Prompt: Hello, I'm reviewing records and need to know if Kd of `G68C` is below 6 nM. Could you check?
Completion: no (0)

Prompt: Find out if reported Kd for U11C C73U is less than 6 nM
Completion: no (0)
